# protocol-description: in vivo
# run-conditions: female, Balb/c, mouse, iv, 75 mg/kg, CL, after i.v. 75 mg/kg Ala-d4T-MP, Balb/c mice, plasma, mean ± S.E.M. (in parentheses)

| compound | unit-name | clearance |
| --- | --- | --- |
| Cc1cn([C@H]2C=C[C@@H](COP(=O)(O)N[C@@H](C)C(=O)O)O2)c(=O)[nH]c1=O [Ala-d4T-MP, alaninyl-d4T-monophosphate] | mL/min/kg | 15.7 |

====

# protocol-description: in vivo
# run-conditions: female, Balb/c, mouse, iv, 75 mg/kg, AUC, after i.v. 75 mg/kg Ala-d4T-MP, Balb/c mice, plasma, estimate from composite pooled data

| compound | AUC, µM·h |
| --- | --- |
| Cc1cn([C@H]2C=C[C@@H](COP(=O)(O)N[C@@H](C)C(=O)O)O2)c(=O)[nH]c1=O [Ala-d4T-MP, alaninyl-d4T-monophosphate] | 194 |

====

# run-conditions: after oral 100 mg/kg d4T-5′-[p-bromophenyl methoxyalaninyl phosphate], Balb/c mice, plasma; mean ± S.E.M. (in parentheses)
endpoint: Cmax (µM)

| molecule | measured-result |
| --- | --- |
| Cc1cn([C@H]2C=C[C@@H](CO)O2)c(=O)[nH]c1=O [d4T, 2′,3′-didehydro-2′,3′-dideoxythymidine] | 29.5 |

====

# protocol-description: in vivo
# run-conditions: female, Balb/c, mouse, iv, 100 mg/kg, t1/2
endpoint: half-life (min)

| compound | unit-name | measured-result |
| --- | --- | --- |
| Cc1cn([C@H]2C=C[C@@H](COP(=O)(O)N[C@@H](C)C(=O)O)O2)c(=O)[nH]c1=O [Ala-d4T-MP, alaninyl-d4T-monophosphate] | min | 129 |

====

# protocol-description: in vivo
# run-conditions: female, Balb/c, mouse, iv, 100 mg/kg, tmax

| molecule | unit-name | Tmax |
| --- | --- | --- |
| Cc1cn([C@H]2C=C[C@@H](COP(=O)(O)N[C@@H](C)C(=O)O)O2)c(=O)[nH]c1=O [Ala-d4T-MP, alaninyl-d4T-monophosphate] | min | 5.9 |

====

# protocol-description: in vivo
# run-conditions: female, Balb/c, mouse, iv, 100 mg/kg, Cmax
endpoint: Cmax

| compound | measured-result |
| --- | --- |
| Cc1cn([C@H]2C=C[C@@H](COP(=O)(O)N[C@@H](C)C(=O)O)O2)c(=O)[nH]c1=O [Ala-d4T-MP, alaninyl-d4T-monophosphate] | 67.4 µM |

====

# protocol-description: in vivo
# run-conditions: female, Balb/c, mouse, po, 100 mg/kg, AUC, after oral 100 mg/kg d4T-5′-[p-bromophenyl methoxyalaninyl phosphate], Balb/c mice, plasma, estimate from composite pooled data

| compound | AUC (µM·h) |
| --- | --- |
| Cc1cn([C@H]2C=C[C@@H](COP(=O)(O)N[C@@H](C)C(=O)O)O2)c(=O)[nH]c1=O [Ala-d4T-MP, alaninyl-d4T-monophosphate] | 22.5 |

====

# protocol-description: in vivo
# run-conditions: female, Balb/c, mouse, po, 100 mg/kg, AUC, after oral 100 mg/kg d4T-5′-[p-bromophenyl methoxyalaninyl phosphate], Balb/c mice, plasma, mean ± S.E.M. (in parentheses)
endpoint: AUC (µM·h)

| molecule | endpoint | measured-result |
| --- | --- | --- |
| Cc1cn([C@H]2C=C[C@@H](COP(=O)(O)N[C@@H](C)C(=O)O)O2)c(=O)[nH]c1=O [Ala-d4T-MP, alaninyl-d4T-monophosphate] | AUC | 22.6 |

====

# protocol-description: in vivo
# run-conditions: female, Balb/c, mouse, iv, 75 mg/kg, t1/2, after i.v. 75 mg/kg Ala-d4T-MP, Balb/c mice, plasma, mean ± S.E.M. (in parentheses)
endpoint: half-life (h)

| compound | unit-name | measured-result |
| --- | --- | --- |
| Cc1cn([C@H]2C=C[C@@H](COP(=O)(O)N[C@@H](C)C(=O)O)O2)c(=O)[nH]c1=O [Ala-d4T-MP, alaninyl-d4T-monophosphate] | h | 1.52 |

====

# protocol-description: in vivo
# run-conditions: female, Balb/c, mouse, po, 100 mg/kg, t1/2, after oral 100 mg/kg d4T-5′-[p-bromophenyl methoxyalaninyl phosphate], Balb/c mice, plasma, mean ± S.E.M. (in parentheses)
endpoint: half-life (min)

| compound | endpoint | unit-name | measured-result |
| --- | --- | --- | --- |
| Cc1cn([C@H]2C=C[C@@H](COP(=O)(O)N[C@@H](C)C(=O)O)O2)c(=O)[nH]c1=O [Ala-d4T-MP, alaninyl-d4T-monophosphate] | half-life | min | 56.1 |

====

# protocol-description: in vivo
# run-conditions: female, Balb/c, mouse, po, 100 mg/kg, Cmax, after oral 100 mg/kg d4T-5′-[p-bromophenyl methoxyalaninyl phosphate], Balb/c mice, plasma, estimate from composite pooled data

| compound | Cmax [µM] |
| --- | --- |
| Cc1cn([C@H]2C=C[C@@H](COP(=O)(O)N[C@@H](C)C(=O)O)O2)c(=O)[nH]c1=O [Ala-d4T-MP, alaninyl-d4T-monophosphate] | 12.7 |

====

# protocol-description: in vivo
# run-conditions: female, Balb/c, mouse, iv, 75 mg/kg, AUC, after i.v. 75 mg/kg Ala-d4T-MP, Balb/c mice, plasma, mean ± S.E.M. (in parentheses)

| compound | AUC, µM·h |
| --- | --- |
| Cc1cn([C@H]2C=C[C@@H](COP(=O)(O)N[C@@H](C)C(=O)O)O2)c(=O)[nH]c1=O [Ala-d4T-MP, alaninyl-d4T-monophosphate] | 196 |

====

# protocol-description: in vivo
# run-conditions: female, Balb/c, mouse, iv, 75 mg/kg, Vss, after i.v. 75 mg/kg Ala-d4T-MP, Balb/c mice, plasma, estimate from composite pooled data
endpoint: Vd (L/kg)

| compound | measured-result |
| --- | --- |
| Cc1cn([C@H]2C=C[C@@H](COP(=O)(O)N[C@@H](C)C(=O)O)O2)c(=O)[nH]c1=O [Ala-d4T-MP, alaninyl-d4T-monophosphate] | 0.276 |

====

# protocol-description: in vivo
# run-conditions: female, Balb/c, mouse, iv, 75 mg/kg, Cmax, after i.v. 75 mg/kg Ala-d4T-MP, Balb/c mice, plasma, mean ± S.E.M. (in parentheses)

| compound | Cmax (µM) |
| --- | --- |
| Cc1cn([C@H]2C=C[C@@H](COP(=O)(O)N[C@@H](C)C(=O)O)O2)c(=O)[nH]c1=O [Ala-d4T-MP, alaninyl-d4T-monophosphate] | 1660 |
